Source listed as ChEMBL document CHEMBL5226284.

assaySystem: Ceramide synthase 2 (Homo sapiens)
Sequence (Q96G23 whole entry): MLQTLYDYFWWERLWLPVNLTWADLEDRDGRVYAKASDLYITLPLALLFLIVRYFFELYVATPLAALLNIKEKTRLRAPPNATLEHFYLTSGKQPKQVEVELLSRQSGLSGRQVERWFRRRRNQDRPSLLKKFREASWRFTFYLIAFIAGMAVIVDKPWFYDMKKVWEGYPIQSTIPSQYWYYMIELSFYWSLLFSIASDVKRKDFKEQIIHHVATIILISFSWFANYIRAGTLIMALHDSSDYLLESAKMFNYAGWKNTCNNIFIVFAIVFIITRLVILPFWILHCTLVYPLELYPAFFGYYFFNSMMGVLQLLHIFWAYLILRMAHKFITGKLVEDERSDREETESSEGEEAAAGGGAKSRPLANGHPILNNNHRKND
assayNotes: Inhibition of CerS2 in HPAC cells using DHSph as substrate
Type: cell-based
readoutKind: IC50

> print(dat)
                  structuresmiles  readoutkind  result
1  CCCCCCCCc1ccc(CCC(N)(CO)CO)cc1         IC50  6.4 µM

* * *

assayNotes: Inhibition of CerS human HCT-116 cells microsomal fraction assessed as reduction in C18 dihydroceramide synthesis by LC-MS/MS analysis
Type: microsomes, Microsome
Reported IC50 by item:
readoutKind: IC50 (µM)

> print(dat)
                            structuresmiles  readoutkind  readoutnumber
1          CCCCCCCCc1ccc(CCC(CO)(CO)NCC)cc1         IC50           50.7
2        CCCCCCCOc1ccc(CCC(CO)(CO)N(C)C)cc1         IC50           21.4
3  CCCCCCCOc1ccc(CCC(CO)(CO)NC(=O)CCCc2ccccc2)cc1         IC50           26.9

* * *

assaySystem: Sphingomyelin phosphodiesterase (Homo sapiens, UniProt P17405)
Sequence (P17405 whole entry): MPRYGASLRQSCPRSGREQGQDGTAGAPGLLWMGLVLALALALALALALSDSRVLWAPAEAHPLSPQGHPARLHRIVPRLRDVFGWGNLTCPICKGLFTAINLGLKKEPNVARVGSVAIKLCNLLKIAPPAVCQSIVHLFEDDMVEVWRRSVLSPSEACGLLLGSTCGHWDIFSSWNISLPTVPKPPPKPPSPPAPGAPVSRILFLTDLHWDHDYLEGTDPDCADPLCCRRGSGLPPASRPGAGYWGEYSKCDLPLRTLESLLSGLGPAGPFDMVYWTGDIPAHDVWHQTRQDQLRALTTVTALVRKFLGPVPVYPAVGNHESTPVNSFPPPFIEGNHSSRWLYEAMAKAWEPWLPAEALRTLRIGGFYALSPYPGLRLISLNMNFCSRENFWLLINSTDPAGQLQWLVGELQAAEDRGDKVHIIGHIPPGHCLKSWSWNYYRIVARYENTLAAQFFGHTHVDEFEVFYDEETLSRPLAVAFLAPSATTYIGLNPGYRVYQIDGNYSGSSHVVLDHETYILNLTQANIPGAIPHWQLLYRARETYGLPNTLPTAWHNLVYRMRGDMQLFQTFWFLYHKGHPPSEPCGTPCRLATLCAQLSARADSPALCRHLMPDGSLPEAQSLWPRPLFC
assayNotes: Inhibition of recombinant human aSMase assessed as inhibition constant
pKi: −log10 of the molar value.
readoutKind: pKi

> print(dat)
                            structuresmiles                               assaysystem  readoutnumber
1  CCCCCCCC(=O)OC[C@H](COP(=O)(O)O[C@@H]1[C@H](O)[C@H](OP(=O)(O)O)[C@@H](O)[C@H](OP(=O)(O)O)[C@H]1O)OC(=O)CCCCCCC  Sphingomyelin phosphodiesterase (Homo sapiens, UniProt P17405)           6.28

* * *

assayNotes: Inhibition of CerS human HCT-116 cells microsomal fraction assessed as reduction in C16 dihydroceramide synthesis by LC-MS/MS analysis
Type: microsomes, Microsome
pIC50: −log10 of the molar value.
readoutKind: pIC50

> print(dat)
                            structuresmiles  readoutnumber
1  CCCCCCCOc1ccc(CCC(CO)(CO)NC(=O)CCCc2ccccc2)cc1           4.30
2          CCCCCCCCc1ccc(CCC(CO)(CO)NCC)cc1           4.59

* * *

assaySystem: Acetylcholinesterase (Homo sapiens, UniProt P22303)
Sequence (P22303 whole entry): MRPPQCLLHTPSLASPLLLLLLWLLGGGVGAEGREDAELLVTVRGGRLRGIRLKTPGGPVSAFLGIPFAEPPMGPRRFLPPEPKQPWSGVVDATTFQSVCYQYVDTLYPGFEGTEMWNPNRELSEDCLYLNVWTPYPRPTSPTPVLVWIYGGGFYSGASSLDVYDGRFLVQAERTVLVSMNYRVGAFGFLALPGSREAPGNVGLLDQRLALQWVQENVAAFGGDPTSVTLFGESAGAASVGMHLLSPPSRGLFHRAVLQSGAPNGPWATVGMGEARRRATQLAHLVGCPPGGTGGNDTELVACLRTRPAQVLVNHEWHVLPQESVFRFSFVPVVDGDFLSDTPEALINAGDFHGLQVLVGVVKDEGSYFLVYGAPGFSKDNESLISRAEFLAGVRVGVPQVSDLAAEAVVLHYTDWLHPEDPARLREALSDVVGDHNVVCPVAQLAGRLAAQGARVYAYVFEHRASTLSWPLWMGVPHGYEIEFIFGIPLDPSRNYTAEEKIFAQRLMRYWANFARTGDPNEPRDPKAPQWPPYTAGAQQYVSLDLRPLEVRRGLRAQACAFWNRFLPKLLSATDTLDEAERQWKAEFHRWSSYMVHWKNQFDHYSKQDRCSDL
readoutKind: IC50 (µM)

> print(dat)
                            structuresmiles  readoutnumber
1  CN1c2ccc(OC(=O)Nc3ccncc3)cc2[C@]2(C)CCO[C@H]12              7

* * *

assayNotes: Inhibition of rat brain aSMase
Assay type: tissue-based
pIC50: −log10 of the molar value.
Reported values of pIC50 for individual entries
readoutKind: pIC50

> print(dat)
                            structuresmiles  readoutkind  readoutnumber
1  COc1ccc2oc(-c3cc(Br)cc4c3OCOC4)c(N)c(=O)c2c1        pIC50           5.51
2  Cc1csc(-c2c(C(F)(F)F)oc3cc(O)c(C)cc3c2=O)n1        pIC50           5.02

* * *

assayNotes: Competitive inhibition of rat brain aSMase assessed as inhibition constant
Assay type: tissue-based
pKi: −log10 of the molar value.
readoutKind: pKi

> print(dat)
                            structuresmiles  readoutnumber
1  CCCCCCCCCCCCOS(=O)(=O)O[C@@H]1[C@H](O)[C@H](OP(=O)(O)O)[C@@H](O)[C@H](OP(=O)(O)O)[C@H]1O           6.38

* * *

assaySystem: Sphingolipid delta(4)-desaturase DES1 (Homo sapiens, UniProt O15121)
Sequence (O15121 whole entry): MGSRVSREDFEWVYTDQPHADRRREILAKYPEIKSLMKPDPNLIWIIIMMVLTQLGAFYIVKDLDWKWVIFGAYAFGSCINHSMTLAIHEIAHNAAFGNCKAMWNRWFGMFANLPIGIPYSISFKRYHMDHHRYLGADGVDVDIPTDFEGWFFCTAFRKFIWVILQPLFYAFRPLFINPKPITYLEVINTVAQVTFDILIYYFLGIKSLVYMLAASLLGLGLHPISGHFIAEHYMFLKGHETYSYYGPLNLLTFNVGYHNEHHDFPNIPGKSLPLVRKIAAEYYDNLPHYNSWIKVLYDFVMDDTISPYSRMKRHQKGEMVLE
assayNotes: Binding affinity to DES1 in human HGC-27 cell lysates assessed as inhibition constant
Format: subcellular
pKi: −log10 of the molar value.
readoutKind: pKi

> print(dat)
                            structuresmiles                               assaysystem  readoutkind  readoutnumber
1  CCCCCCCCCCCCCC1=C([C@@H](O)[C@H](CO)NC(=O)CCCCCCC)C1  Sphingolipid delta(4)-desaturase DES1 (Homo sapiens, UniProt O15121)          pKi           7.66

* * *

assaySystem: Sphingomyelinase C (Bacillus cereus)
Sequence (P11889 whole entry): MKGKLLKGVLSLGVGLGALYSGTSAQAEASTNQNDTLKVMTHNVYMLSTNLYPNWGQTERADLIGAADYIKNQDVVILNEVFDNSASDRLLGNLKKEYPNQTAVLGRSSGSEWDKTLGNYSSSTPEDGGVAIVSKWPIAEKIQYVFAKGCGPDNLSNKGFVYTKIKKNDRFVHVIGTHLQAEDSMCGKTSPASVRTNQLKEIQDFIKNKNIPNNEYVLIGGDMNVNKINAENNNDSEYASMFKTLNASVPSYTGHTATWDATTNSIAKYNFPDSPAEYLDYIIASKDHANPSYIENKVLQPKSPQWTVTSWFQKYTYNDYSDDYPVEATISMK
Collected IC50 values appear next to each entry.
readoutKind: IC50 (µM)

> print(dat)
                            structuresmiles  readoutnumber
1  CCCCCCC[C@@H](O)[C@H](CNP(=O)([O-])OCC[N+](C)(C)C)NC(=O)CCCCC             53
2  CCCCCCC[C@@H](O)[C@H](CC(F)(F)P(=O)([O-])OCC[N+](C)(C)C)NC(=O)CCCCC             57
3  CCCCCCC[C@@H](O)[C@H](CCCP(=O)([O-])OCC[N+](C)(C)C)NC(=O)CCCCC             78
4  CCCCCCC[C@@H](O)[C@H](CCP(=O)([O-])OCC[N+](C)(C)C)NC(=O)CCCCC            120

* * *

assayNotes: Inhibition of rat brain aSMase using HMU-PC as substrate incubated for 3 hrs by fluorescence based analysis
Format: tissue-based
pIC50: −log10 of the molar value.
readoutKind: pIC50

> print(dat)
                            structuresmiles  result
1  COS(=O)(=O)O[C@@H]1[C@H](O)[C@H](OP(=O)(O)O)[C@@H](O)[C@H](OP(=O)(O)O)[C@H]1O  < 4.00
2  CCOS(=O)(=O)O[C@@H]1[C@H](O)[C@H](OP(=O)(O)O)[C@@H](O)[C@H](OP(=O)(O)O)[C@H]1O  < 4.00
3  CCCCCCCCCCCCOS(=O)(=O)O[C@@H]1[C@H](O)[C@H](OP(=O)(O)O)[C@@H](O)[C@H](OP(=O)(O)O)[C@H]1O    6.05
